Overview of recorded reverse-splicing fitness for various variants
B1: Azoarcus group I ribozyme (parent)
chain: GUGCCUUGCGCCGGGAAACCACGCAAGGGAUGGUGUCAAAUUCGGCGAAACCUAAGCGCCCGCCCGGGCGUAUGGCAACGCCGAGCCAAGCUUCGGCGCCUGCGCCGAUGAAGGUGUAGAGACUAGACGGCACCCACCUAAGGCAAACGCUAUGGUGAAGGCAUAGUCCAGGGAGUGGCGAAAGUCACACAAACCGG

variants of: B1; experiment: reverse-splicing fitness (ratio to wild type); higher = more active; in vitro selection; Mg2+ level not given

What does the data say about its reverse-splicing fitness? Entry: C82G A111G A120C A145C C150U C169A
0.00918

Also check C82U A111U A145G C150U C169U U176C
0.013

Also check A111G A120G A145U C150G U176C
0.0217

Also check C82U A111U A145G C150U C169A U176A
0.0156

Also check C82U A111U A145G
0.332

Also check C82A A111C C150A U176G
0.0104

meta.source: the RNAGym collection of RNA variant scans (doi:10.1093/molbev/msab373)
